# System Name: recombinant human UCK2 (Homo sapiens)
# Construct: 6xHis (C); made in house; host or cells: E. coli BL21(DE3)
# Sequence (Q9BZX2 1-261): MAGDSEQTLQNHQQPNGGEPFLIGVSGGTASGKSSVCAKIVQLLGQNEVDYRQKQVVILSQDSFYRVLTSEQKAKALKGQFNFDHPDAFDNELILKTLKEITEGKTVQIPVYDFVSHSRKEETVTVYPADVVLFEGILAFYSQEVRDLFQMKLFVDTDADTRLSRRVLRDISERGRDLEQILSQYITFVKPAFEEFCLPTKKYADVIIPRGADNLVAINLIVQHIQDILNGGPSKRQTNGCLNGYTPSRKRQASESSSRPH
# Assay Summary: In vitro enzyme activity assay with recombinant human UCK2 (PK/LDH-coupled, UV 340 nm)
# Format: biochemical
# Condition Label: 250 μM analog in the presence of 50 μM uridine
Attribute Measured: UCK2 substrate or not (ATP consumption)

>>> df
                               smiles_entry              result
0  O=c1ccn([C@@H]2C=C(CO)[C@@H](O)[C@H]2O)c(=O)[nH]1  substrates of UCK2
1  O=c1[nH]c(=O)n([C@@H]2C=C(CO)[C@@H](O)[C@H]2O)cc1F  substrates of UCK2

Hello, the source for this data is patent US20220280513A1, in case you need it.
